I'd be grateful if you could share measured inhibition for these entries.
- System Name: hCatL (Homo sapiens, UniProt P07711)
- Sequence (P07711 114-333): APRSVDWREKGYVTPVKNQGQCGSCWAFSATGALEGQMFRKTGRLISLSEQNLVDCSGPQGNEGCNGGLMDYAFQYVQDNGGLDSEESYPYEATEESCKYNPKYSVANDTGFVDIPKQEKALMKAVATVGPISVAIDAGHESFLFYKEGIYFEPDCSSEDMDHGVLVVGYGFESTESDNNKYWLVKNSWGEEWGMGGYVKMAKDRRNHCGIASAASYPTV
- Assay Info: Fluorescence-based activity test against cathepsin L (Cbz-Phe-Arg-AMC)
- Type: biochemical
- Set-up: dose or concentration left out as unconfirmed
Numbers only, in %.

Examples with their reported inhibition follow.
CCCCC/C=C/C(=O)N[C@@H](Cc1ccccc1)C(=O)N[C@H](/C=C/C(=O)O)CCCNC(=N)N [drawing 47]	90
CCCCCCCC(=O)N[C@@H](Cc1ccc(O)cc1)C(=O)N[C@H](/C=C/C(=O)O)CCCNC(=N)N [drawing 50]	80
CCCCC/C=C/C(=O)N[C@@H](Cc1ccc(O)cc1)C(=O)N[C@H](/C=C/C(=O)O)CCCNC(=N)N [drawing 45]	95

Required: inhibition, one value per molecule below.
1. CCCCC/C=C/C(=O)N[C@@H](Cc1ccc(O)cc1)C(=O)N[C@@H](/C=C/C(=O)O)CCCCN [drawing 46]
2. CCCCC/C=C/C(=O)N[C@H](Cc1ccc(O)cc1)C(=O)N[C@H](/C=C/C(=O)O)CCCNC(=N)N [drawing 49]
3. CCCCC/C=C/C(=O)N[C@@H](Cc1ccc(O)cc1)C(=O)N[C@@H](/C=C/C(=O)O)CCCNC(=N)N [drawing 48]

[96, 7, 20]

---

- System Name: Cathepsin B (Homo sapiens, UniProt P07858)
- Assay Info: Cathepsin B inhibition assay (Z-Arg-Arg-AMC)
- Type: biochemical
- Details: Z-Arg-Arg-AMC substrate, pH 6.0; n.i. = no inhibition; read-out: Cathepsin B, inhibitory activity as IC50 value
For each entry below, report its IC50 value.

CCCCC/C=C/C(=O)N[C@@H](Cc1ccc(O)cc1)C(=O)N[C@H](/C=C/C(=O)O)CCCNC(=N)N [Barnesin A (1), Barnesin A]	91.7 nM

Please look at the items below and tell me IC50 for each one, in order.
1. CCCCCCCC(=O)N[C@@H](Cc1ccc(O)cc1)C(=O)N[C@H](/C=C/C(=O)O)CCCNC(=N)N [17,18-Dihydrobarnesin (4), 17,18-Dihydrobarnesin]
2. CCCCC/C=C/C(=O)N[C@@H](Cc1ccc(O)cc1)C(=O)N[C@H](/C=C/C(=O)OCC)CCCN=C(N)N [Barnesin A ethyl ester (3)]

1. 87.6 nM
2. 24 nM

The values you see were collected from patent US20230202973A1.
